Value source: paper PMC10397247

# Lookup of reported interaction score keyed by entry
Biological target: T1, O14-bN
T1 chain: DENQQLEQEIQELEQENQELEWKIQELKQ
Assay: two-hybrid library CCNG1;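 note: natural log of median RNA to DNA barcode read ratio; higher means stronger binding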

Fill in reported interaction score for this entry: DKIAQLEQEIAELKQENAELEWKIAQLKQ [4H2134-bA] -1.45
